FYI, the data here is from patent US6372446B1.

System: Eurotium sp. (AAS 36)
method-description: Screening of fungi for enzyme activity with 4-methylumbelliferone-labelled substrates
Type: cell-based
run-parameters: vegetable juice medium, substrate 10 μM, 25° C., pH 5
Overview of reported Enzyme activity: amount of released 4-methylumbelliferone during 5 hours of incubation across a group of compounds:
Quick reminder: number only, in µmol, skip the unit.

# example entries with known answers
compound: CC(=O)N[C@H]1[C@H](Oc2ccc3c(C)cc(=O)oc3c2)O[C@H](COS(=O)(=O)O)[C@@H](O)[C@@H]1O [substrate 1]
tested-target: Eurotium sp. (AAS 36)
observed: 0

compound: Cc1cc(=O)oc2cc(O[C@@H]3O[C@H](C)[C@H](O)[C@H](O)[C@H]3O)ccc12 [substrate 11, 4-methylumbelliferyl β-D-fucoside]
tested-target: Eurotium sp. (AAS 36)
observed: 0

Okay, next one:
Tell me measured Enzyme activity: amount of released 4-methylumbelliferone during 5 hours of incubation for Cc1cc(=O)oc2cc(O[C@@H]3O[C@H](CO)[C@@H](O[C@@H]4O[C@H](CO)[C@H](O)[C@H](O)[C@H]4O)[C@H](O)[C@H]3O)ccc12 [substrate 8, 4-methylumbelliferyl β-D-lactoside] please.
0

###

Tested on: Sodaria fimicola (AAS 17)
method-description: Screening of fungi for enzyme activity with 4-methylumbelliferone-labelled substrates
Format: cell-based
run-parameters: vegetable juice medium, substrate 10 μM, 25° C., pH 5
value-type: Enzyme activity: amount of released 4-methylumbelliferone during 5 hours of incubation

compound: CC(=O)N[C@H]1[C@H](Oc2ccc3c(C)cc(=O)oc3c2)O[C@H](CO)[C@@H](O)[C@@H]1O [substrate 3]
observed: *** (2 ≦ ***)

compound: CC(=O)N[C@H]1[C@H](Oc2ccc3c(C)cc(=O)oc3c2)O[C@H](CO)[C@@H](O[C@@H]2O[C@H](CO)[C@@H](O[C@@H]3O[C@H](CO)[C@@H](O)[C@H](O)[C@H]3NC(C)=O)[C@H](O)[C@H]2NC(C)=O)[C@@H]1O [substrate 4]
observed: *** (2 ≦ ***)

###

Test system: Sodaria fimicola (AAS 17)
method-description: Screening of fungi for enzyme activity with 4-methylumbelliferone-labelled substrates
Type: cell-based
run-parameters: vegetable juice medium, substrate 10 μM, 25° C., pH 5
value-type: Enzyme activity: amount of released 4-methylumbelliferone during 5 hours of incubation

compound: Cc1cc(=O)oc2cc(O[C@@H]3O[C@H](CO)[C@@H](O)[C@H](O)[C@@H]3O)ccc12 [substrate 6, 4-methylumbelliferyl β-D-mannopyranoside]
tested-target: Sodaria fimicola (AAS 17)
observed: *** (2 ≦ ***)
--
compound: Cc1cc(=O)oc2cc(OC3OC(CO)C(O)C(O)C3O)ccc12 [substrate 5, 4-methylumbelliferyl α-D-mannopyranoside]
tested-target: Sodaria fimicola (AAS 17)
observed: *** (2 ≦ ***)

###

Test system: Aureobasidium pullulans (QM 3092)
method-description: Screening of fungi for enzyme activity with 4-methylumbelliferone-labelled substrates
Assay type: cell-based
run-parameters: Aureobasidium pullulans (QM 3092); mineral medium; substrate 10 μM, 25° C., pH 5
value-type: Enzyme activity: amount of released 4-methylumbelliferone

molecule: CC(=O)N[C@H]1[C@H](Oc2ccc3c(C)cc(=O)oc3c2)O[C@H](CO)[C@@H](O[C@@H]2O[C@H](CO)[C@@H](O[C@@H]3O[C@H](CO)[C@@H](O)[C@H](O)[C@H]3NC(C)=O)[C@H](O)[C@H]2NC(C)=O)[C@@H]1O [substrate 4]
observed: *** (2 ≦ ***)

molecule: CC(=O)N[C@H]1[C@H](Oc2ccc3c(C)cc(=O)oc3c2)O[C@H](CO)[C@@H](O)[C@@H]1O [substrate 3]
observed: *** (2 ≦ ***)

molecule: Cc1cc(=O)oc2cc(O[C@H]3O[C@H](CO)[C@@H](O)[C@H](O)[C@H]3O)ccc12 [substrate 7, 4-methylumbelliferyl α-D-glucoside]
observed: *** (2 ≦ ***)
